Tested on: wheat germ agglutinin (Triticum aestivum), Alexa647-labelled
TEST: wheat germ agglutinin binders on compound microarrays, profiling panel, artefact control for SMM control-protein annotation, biochemical, small-molecule microarray, 635/667 nm fluorescence (AID 1140);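 further: score merges 667 nm feature emission with signal to noise over triplicate slides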
STUDY_CONDITIONS: WGA-A647 binding, 635 nm fluorescence, higher = more signal
Parameter: composite z-score. Scope: all listed entries.

>  <COMPOUND>
CCOC(=O)[C@H](Cc1ccccc1)NC(=O)CCC1CC(OC(=O)NCc2ccc3c(c2)OCO3)CC2(CCCC(COC(=O)NCCC(C)C)O2)O1 (stereo not given in full)

>  <STUDY_TARGET>
wheat germ agglutinin (Triticum aestivum), Alexa647-labelled

>  <composite z-score>
0.531

$$$$
>  <COMPOUND>
CCOC(=O)[C@H](CC(C)C)NC(=O)CCC1CC(OC(=O)NCc2ccc3c(c2)OCO3)CC2(CCCC(COC(=O)NCc3cccc(C(F)(F)F)c3)O2)O1 (stereo not given in full)

>  <STUDY_TARGET>
wheat germ agglutinin (Triticum aestivum), Alexa647-labelled

>  <composite z-score>
0.144

$$$$
>  <COMPOUND>
COC(=O)CC=C[C@@H](C)[C@@H](C=NO[C@@H](C)c1cn([C@H](CO)Cc2ccccc2)nn1)NS(=O)(=O)c1ccc(C)cc1

>  <STUDY_TARGET>
wheat germ agglutinin (Triticum aestivum), Alexa647-labelled

>  <composite z-score>
0.0187

$$$$
>  <COMPOUND>
CCOC(=O)[C@H](CC(C)C)NC(=O)CCC1CC(OC(=O)NCCc2ccc(F)cc2)CC2(CCCC(COC(=O)NCCOc3ccccc3)O2)O1 (stereo not given in full)

>  <STUDY_TARGET>
wheat germ agglutinin (Triticum aestivum), Alexa647-labelled

>  <composite z-score>
0.394

$$$$
>  <COMPOUND>
CCOC(=O)CCN1C(=O)[C@H]2[C@H]3[C@H](O)[C@H](O)CC(=NOCc4ccccc4)[C@H]3CC[C@H]2C1=O

>  <STUDY_TARGET>
wheat germ agglutinin (Triticum aestivum), Alexa647-labelled

>  <composite z-score>
0.343

$$$$

====

TEST: basal RPMI8226 mitochondrial membrane potential changes, profiling panel, cell-based, JC-1 fluorescence, 24 h, 100 nL compound (AID 1169); further: test concentration not given here
STUDY_CONDITIONS: RPMI8226 myeloma, JC-1 mitochondrial potential fluorescence, higher = more signal
OBSERVED_PROPERTY: z-score

>  <MOLECULE>
CC(CCN1CCc2nc(-c3ccccc3)c(-c3ccccc3)cc2C1)=NOC[C@@H](O)[C@H]1O[C@@H]2OC(C)(C)O[C@@H]2[C@H]1O

>  <OBSERVED_PROPERTY>
z-score

>  <NUMBER>
-0.109

$$$$
>  <MOLECULE>
CCc1cc2c(nc1CC)CCN(CCC(C)=NO[C@H](C)c1cn([C@H](CO)Cc3ccccc3)nn1)C2

>  <OBSERVED_PROPERTY>
z-score

>  <NUMBER>
-0.664

$$$$
>  <MOLECULE>
CC(C)C[C@H](NC(=O)CCC1CC(OC(=O)NCc2cccc3ccccc23)CC2(CCCC(COC(=O)NCc3ccccc3)O2)O1)C(=O)NCC(c1ccccc1)c1ccccc1 (stereo partly specified)

>  <OBSERVED_PROPERTY>
z-score

>  <NUMBER>
-0.802

$$$$
>  <MOLECULE>
CC=CC1=C(CO)C(=O)[C@@H]2O[C@@H]2C1=O

>  <OBSERVED_PROPERTY>
z-score

>  <NUMBER>
-1

$$$$
>  <MOLECULE>
CCc1cc2c(nc1CC)CCN(CCC(C)=NO[C@H](C)c1cn([C@@H]3COC[C@H]3O)nn1)C2

>  <OBSERVED_PROPERTY>
z-score

>  <NUMBER>
-0.121

$$$$
>  <MOLECULE>
O=C(NN=C1C[C@@H](O)[C@@H](O)[C@@H]2[C@@H]3C(=O)N(C4CCCCC4)C(=O)[C@@H]3CC[C@H]12)OCc1ccccc1

>  <OBSERVED_PROPERTY>
z-score

>  <NUMBER>
0.219

$$$$
>  <MOLECULE>
CO[C@@H]1COC(=O)[C@H](CCSC)NC(=O)CC=C[C@@H](C)COC(=O)[C@H](C)NC(=O)CC=C[C@H]1C

>  <OBSERVED_PROPERTY>
z-score

>  <NUMBER>
-0.226

$$$$
>  <MOLECULE>
O=C1[C@H]2[C@H]3[C@H](O)[C@H](O)CC(=NOC[C@@H](O)COCc4ccco4)[C@H]3CC[C@H]2C(=O)N1Cc1ccccc1

>  <OBSERVED_PROPERTY>
z-score

>  <NUMBER>
0.714

$$$$
>  <MOLECULE>
CCOC(=O)NN=C1C[C@@H](O)[C@@H](O)[C@@H]2[C@@H]3C(=O)N([C@@H](C)c4ccccc4)C(=O)[C@@H]3CC[C@H]12

>  <OBSERVED_PROPERTY>
z-score

>  <NUMBER>
0.104

$$$$
>  <MOLECULE>
COC(=O)CC=C[C@@H](C)[C@@H](C=NO[C@@H](C)c1cn([C@H](CO)Cc2ccccc2)nn1)OC

>  <OBSERVED_PROPERTY>
z-score

>  <NUMBER>
0.0532

$$$$
>  <MOLECULE>
CCOC(=O)[C@H](Cc1ccccc1)NC(=O)CCC1CC(OC(=O)NCc2cccc3ccccc23)CC2(CCCC(COC(=O)NCc3ccccc3)O2)O1 (stereo partly specified)

>  <OBSERVED_PROPERTY>
z-score

>  <NUMBER>
-0.839

$$$$
>  <MOLECULE>
CC(C)=CCCC(C)=CCON=C1C[C@@H](O)[C@@H](O)[C@@H]2[C@@H]3C(=O)N(C4CCCCC4)C(=O)[C@@H]3CC[C@@H]12

>  <OBSERVED_PROPERTY>
z-score

>  <NUMBER>
-0.258

$$$$
>  <MOLECULE>
O=c1n(-c2ccccc2)c(=O)n2n1CC[C@@H]1C(=NOCc3ccccc3)[C@H]3O[C@H]3[C@@H](O)[C@@H]12

>  <OBSERVED_PROPERTY>
z-score

>  <NUMBER>
-0.0915

$$$$
>  <MOLECULE>
CC(=O)OC[C@H]1O[C@H](CC=NO[C@H](C)c2cn([C@H](CO)Cc3ccccc3)nn2)C=C[C@@H]1OC(C)=O

>  <OBSERVED_PROPERTY>
z-score

>  <NUMBER>
0.013

$$$$
>  <MOLECULE>
C=CC[C@@H]1C=C[C@H](ON=C2[C@H]3CCn4c(=O)n(-c5ccccc5)c(=O)n4[C@H]3[C@H](O)[C@@H]3O[C@H]23)[C@@H](CO)O1

>  <OBSERVED_PROPERTY>
z-score

>  <NUMBER>
-0.172

$$$$
>  <MOLECULE>
CCOC(=O)[C@H](CC(C)C)NC(=O)CCC1CC(OC(=O)NCc2ccc3c(c2)OCO3)CC2(CCCC(COC(=O)NCCCN3CCCC3=O)O2)O1 (stereo partly specified)

>  <OBSERVED_PROPERTY>
z-score

>  <NUMBER>
-0.838

$$$$
>  <MOLECULE>
CCOC(=O)[C@H](Cc1ccccc1)NC(=O)CCC1CC(OC(=O)NCc2cccc3ccccc23)CC2(CCCC(COC(=O)NCCC(C)C)O2)O1 (stereo partly specified)

>  <OBSERVED_PROPERTY>
z-score

>  <NUMBER>
-0.758

$$$$
>  <MOLECULE>
COC(=O)[C@@H]1CC[C@@H](C)[C@H](c2ccc(Br)cc2)N1

>  <OBSERVED_PROPERTY>
z-score

>  <NUMBER>
0.273

$$$$
>  <MOLECULE>
CC(=O)OC[C@H]1O[C@H](C#Cc2ccccc2)C=C[C@@H]1OC(C)=O

>  <OBSERVED_PROPERTY>
z-score

>  <NUMBER>
-1.04

$$$$
>  <MOLECULE>
CCOC(=O)[C@H](CC(C)C)NC(=O)CCC1CC(OC(=O)NCc2cccc3ccccc23)CC2(CCCC(COC(=O)NCCOc3ccccc3)O2)O1 (stereo partly specified)

>  <OBSERVED_PROPERTY>
z-score

>  <NUMBER>
-0.763

$$$$
>  <MOLECULE>
COc1ccc(COC(=O)NN=C2C[C@@H](O)[C@@H](O)[C@@H]3[C@@H]4C(=O)N(C5CCCCC5)C(=O)[C@@H]4CC[C@H]23)cc1

>  <OBSERVED_PROPERTY>
z-score

>  <NUMBER>
0.249

$$$$

====

TEST: small-molecule microarray binders of probe aEGFR, primary screen, biochemical, biotinylated probe, 635/667 nm fluorescence (AID 1097);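 further: probe is a biotinylated anti-EGFR antibody binding compounds printed on slides; score combines fluorescence near 667 nm and signal to noise of each spot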
STUDY_CONDITIONS: higher = more signal
Threshold check on composite z-score: at or above 0.01 gives T, strictly below gives F.

>  <SMILES_CODE>
CCCNC(=O)OC[C@H]1O[C@H](CCON=C(C)CCN2CCc3nc(CC)c(CC)cc3C2)C=C[C@@H]1Oc1ccc(OC)cc1

>  <DISCRETE_LABEL>
F

$$$$
>  <SMILES_CODE>
C#CCCCON=C1C[C@@H](O)[C@@H](O)[C@@H]2[C@@H]3C(=O)N(c4ccc(F)cc4F)C(=O)[C@@H]3CC[C@H]12

>  <DISCRETE_LABEL>
F

$$$$
>  <SMILES_CODE>
CCOC(=O)CCN1C(=O)[C@H]2[C@H]3[C@H](O)[C@H](O)CC(=NOCC(C)C)[C@H]3CC[C@H]2C1=O

>  <DISCRETE_LABEL>
F

$$$$
>  <SMILES_CODE>
CC(=O)OC[C@H]1O[C@@H](ON=C(C)CCN2CCCc3nc(C)c(C)cc32)[C@H](OC(C)=O)[C@@H](OC(C)=O)[C@@H]1OC(C)=O

>  <DISCRETE_LABEL>
T

$$$$
>  <SMILES_CODE>
CCOC(=O)NN=C1C[C@@H](O)[C@@H](O)[C@@H]2[C@@H]3C(=O)N(C(C)(C)C)C(=O)[C@@H]3CC[C@H]12

>  <DISCRETE_LABEL>
T

$$$$
>  <SMILES_CODE>
CC(C)CON=C1C[C@@H](O)[C@@H](O)[C@@H]2[C@@H]3C(=O)N(C4CCCCC4)C(=O)[C@@H]3CC[C@@H]12

>  <DISCRETE_LABEL>
F

$$$$
>  <SMILES_CODE>
CON=C(C)CCC(=O)OC[C@H]1O[C@H](c2ccccc2)C=C[C@@H]1Oc1ccc(OC)cc1

>  <DISCRETE_LABEL>
F

$$$$
>  <SMILES_CODE>
COC(=O)CC=C[C@@H](C)[C@@H](C=NO[C@H](C)c1cn([C@H](CO)Cc2ccccc2)nn1)OC

>  <DISCRETE_LABEL>
T

$$$$
>  <SMILES_CODE>
CC(CCN1CCCCc2nc(C)c(C)cc21)=NO[C@@H](C)c1cn([C@H](CO)Cc2ccccc2)nn1

>  <DISCRETE_LABEL>
T

$$$$
